Attribution: PubChem BioAssay (NCI)

tested on: 786-0 renal; experiment: NCI tumour cell line growth inhibition, 48 h

molecule: CCNCCNC(=O)c1ccc(Br)cc1
TGI: > 100 µM
//
molecule: O=C1OC2C(O)C(=O)OC2C1O (stereo unspecified)
TGI: > 100 µM
//
molecule: CCc1n[nH]c(=O)n1NC(=O)/C=C\C(=O)O
TGI: > 100 µM
//
molecule: ClC[Si]12OCCN(CCO1)CCO2
TGI: > 100 µM
//
molecule: COc1ccc(/C(C)=N/NC(N)=S)c(OC)c1
TGI: > 100 µM
//
molecule: CC1Cc2cc(O)ccc2C2[C@@H]1C1CC[C@H](O)[C@@]1(C)C[C@@H]2O[N+](=O)[O-] (stereo partly specified)
TGI: 65.3 µM
//
molecule: CCOC(=O)C1(Cc2ccccc2)Cc2ccccc2C1=O (stereo unspecified)
TGI: > 100 µM
//
molecule: CCOC(=O)/C=C/c1ccccn1
TGI: > 100 µM
//
molecule: C[C@@]1(N2C(=O)OC[C@@H]2c2ccccc2)C(=O)N([C@H](CC(=O)N2CCC(N3CCCCC3)CC2)C(=O)NCc2cccc(C(F)(F)F)c2)[C@@H]1/C=C/c1ccccc1
TGI: 3.41 µM
//
molecule: CN(C)/C(N)=N/C(N)=S
TGI: > 100 µM
//
molecule: N=c1ccn2c(n1)O[C@@H]1[C@@H](O)[C@H](CO)O[C@@H]12
TGI: 50.3 µM
//
molecule: O=C(c1ccc2c3c(ccc(C(=O)C(F)(F)F)c13)CC2)C(F)(F)F
TGI: > 100 µM
//
molecule: O=C(O)C1OC(Oc2cc(O)c3c(=O)cc(-c4ccc(O)cc4)oc3c2)C(O)C(O)C1O (stereo unspecified)
TGI: > 100 µM
//
molecule: CC(=O)O[C@H]1[C@@H](N2CCN(C)CC2)C[C@H]2[C@@H]3CC=C4C[C@@H](N5CCCC5)CC[C@]4(C)[C@H]3CC[C@@]21C
TGI: > 100 µM
//
molecule: CCOP(C)(=O)C(Nc1ccc(F)cc1)c1ccc(F)cc1 (stereo unspecified)
TGI: > 100 µM
//
molecule: C=C(C(=O)O)[C@@H]1C[C@@H]2O[C@H]1CC(C)=CCC/C(C)=C/CC[C@@]2(C)O
TGI: > 100 µM
//
molecule: COC(Cc1ccccc1)NC(C)=O (stereo unspecified)
TGI: > 100 µM
//
molecule: Cc1cc2c(c(N)c1C)C(=O)c1ccccc1C2=O
TGI: 62.7 µM
//
molecule: c1ccc2c(c1)C(=Nc1ccc(N=C3c4ccccc4-c4ccccc43)cc1)c1ccccc1-2
TGI: > 100 µM
//
molecule: Oc1cc2c(cc1O)-c1[nH]ncc1CC2
TGI: > 100 µM
//
molecule: CN(C)CCC1(C2=CCCC2)CC/C(=C\c2ccccc2)C1=O (stereo unspecified)
TGI: 27.8 µM
//
molecule: Cc1cc(NCCCCCCNc2cc(C)nc3ccc(Cl)cc23)c2cc(Cl)ccc2n1
TGI: 32 µM
//
molecule: Cc1nc2cc(N)c(Cl)cc2[nH]1
TGI: > 100 µM
//
molecule: BrC12c3ccccc3Sc3ccccc3C1(Br)c1ccccc12 (stereo unspecified)
TGI: > 100 µM
//
molecule: CC(C)(C)NC1C2CCC(C)(C1O)C2(C)C (stereo unspecified)
TGI: > 100 µM
//
molecule: COc1ccc(CNc2nc(NCc3ccc(OC)cc3)c3n[nH]c(C(C)C)c3n2)cc1
TGI: 20.6 µM
//
molecule: NC(CCCCNC(=O)C(Cc1ccccc1)NC(=O)OCc1ccccc1)C(=O)NC(CCCCNC(=O)C(Cc1ccccc1)NC(=O)OCc1ccccc1)C(=O)NC(CCCCNC(=O)C(Cc1ccccc1)NC(=O)OCc1ccccc1)C(=O)NC(CCCCNC(=O)C(Cc1ccccc1)NC(=O)OCc1ccccc1)C(=O)NC(CCCCNC(=O)C(Cc1ccccc1)NC(=O)OCc1ccccc1)C(=O)NC(CCCCNC(=O)C(Cc1ccccc1)NC(=O)OCc1ccccc1)C(=O)O (stereo unspecified)
TGI: > 100 µM
//
molecule: O=C1NN(c2ccccc2)C(=O)C2C3c4ccccc4C(c4ccccc43)C12 (stereo unspecified)
TGI: > 100 µM
//
molecule: CCCCP(CCCC)(CCCC)=C(C(=O)OC)C(C(=O)OC)=C1SC(C(=O)OC)=C(C(=O)OC)S1
TGI: 40 µM
//
molecule: CCOC(=O)c1cc(-c2ccc(Cl)cc2)c([N+](=O)[O-])n1C
TGI: > 10 µM
//
molecule: O=C(/C=C/c1cccnc1)c1ccccc1O
TGI: 31.8 µM
//
molecule: Cc1cc(-c2nc3cc(F)c(F)cc3s2)ccc1N
TGI: > 100 µM
//
molecule: CC(=O)Nc1ccc(-c2nc3ccccc3s2)cc1O
TGI: > 100 µM
//
molecule: O=C(CSc1nnc(-c2ccc(N=Cc3ccc(Cl)cc3)cc2)o1)Nc1cccc(Cl)c1
TGI: > 100 µM
//
molecule: O=C(O)c1cc(Sc2ccc([N+](=O)[O-])c(C(=O)O)c2)ccc1[N+](=O)[O-]
TGI: > 100 µM
//
molecule: N#CC1=C(c2ccccc2)C(O)(c2ccccc2)NC1=O (stereo unspecified)
TGI: > 100 µM
//
molecule: CC1(C)OC(=S)N(c2ccccc2)C12C=Cc1cc3ccccc3cc1O2 (stereo unspecified)
TGI: > 100 µM
//
molecule: COc1cc(NC(N)=NCCC(C)(C)c2ccc(C(F)(F)F)cc2)ncc1C#N
TGI: 3.14 µM
//
molecule: Cn1c(=S)sc2nc3ccccc3n2c1=S
TGI: 33.6 µM
//
molecule: COC(=O)NN1C(C)=C(C(=O)OC)C2(CCOC2=O)C1(C)O (stereo unspecified)
TGI: > 100 µM
//
molecule: Nc1ccc(N)c2c1C(=O)c1c(N)ccc(N)c1C2=O
TGI: > 100 µM
